assay-explanation: Estimation of solubility in various solvents by step-wise solvent addition
Type: physicochemical
condition-details: water, 23 °C, pH 4.91, water, thermodynamic from solid, water, 23° C.; final solution pH 4.91; read-out: Estimated solubility
result-type: solubility

Kindly indicate its recorded solubility. Item: Cc1[nH]c(/C=C2\C(=O)Nc3ccc(F)cc32)c(C)c1C(=O)NCCN1CCCC1 [Compound I phosphate]
~290 µg/mL

###

assay-explanation: Estimation of solubility in various solvents by step-wise solvent addition
Assay type: physicochemical
condition-details: buffer (pH 2), pH 2, at pH 2 or lower; read-out: solubility
result-type: solubility

Kindly indicate its recorded solubility. Item: Cc1[nH]c(/C=C2\C(=O)Nc3ccc(F)cc32)c(C)c1C(=O)NCCN1CCCC1 [Compound I phosphate]
> 3 mg/mL
